tested on: C6; assay: Inhibition of C-6 rat glioma cell proliferation; format: functional, cell-based
MEASUREMENT_LABEL: IC50
# output: number + unit

Ask: Recorded IC50 of `CN1CCN(CCCNc2ncc3cc(-c4c(Cl)cccc4Cl)c(NC(=O)NC(C)(C)C)nc3n2)CC1` , please.
Reply: 4 µM

Ask: Value lookup for IC50; key = `CCN(CC)CCCCNc1ncc2cc(-c3c(Cl)cccc3Cl)c(NC(=O)NC(C)(C)C)nc2n1`
Reply: 5.8 µM

Ask: Fill in the blank: the reported IC50 of `CCNC(=O)Nc1nc2nc(NCCCN3CCN(C)CC3)ncc2cc1-c1c(Cl)cccc1Cl` is ____.
Reply: 6.7 µM

Ask: Please report the recorded IC50 for `CN1CCN(CCCNc2ncc3cc(-c4c(Cl)cccc4Cl)c(NC(=O)Nc4ccccc4)nc3n2)CC1` .
Reply: 6.7 µM

Ask: Which IC50 value is on record for `CCN(CC)CCCCNc1ncc2cc(-c3c(Cl)cccc3Cl)c(NC(=O)Nc3ccccc3)nc2n1` ?
Reply: 8.1 µM

Ask: Query (compound): `CCNC(=O)Nc1nc2nc(NCCCCN(CC)CC)ncc2cc1-c1c(Cl)cccc1Cl` ; field requested: IC50
Reply: 8.8 µM

====

Please provide measured pIC50 for the entries that follow.
Quick note: pIC50 means taking -log10 of the concentration in moles per liter.

Ask: Reported pIC50 for Fibroblast growth factor receptor 1 (Homo sapiens), given `CN1CCN(CCCNc2ncc3cc(-c4c(Cl)cccc4Cl)c(N=C(N)Nc4ccccc4)nc3n2)CC1` ?
Reply: 5.55

Ask: What reported pIC50 corresponds to `CCN(CC)CCCNc1ncc2cc(-c3c(Cl)cccc3Cl)c(NC(=O)CC(C)(C)C)nc2n1` on Fibroblast growth factor receptor 1 (Homo sapiens)?
Reply: 4.57

Ask: Field: pIC50 (Fibroblast growth factor receptor 1 (Homo sapiens)). Entry: `CCNC(=O)Nc1nc2nc(NCCCN(CC)CC)ncc2cc1-c1c(Cl)cccc1Cl`
Reply: 6.89

Ask: Write down the reported pIC50 of `CCN(CC)CCCCNc1ncc2cc(-c3c(Cl)cccc3Cl)c(NC(=O)NC3CCCCC3)nc2n1` , test system: Fibroblast growth factor receptor 1 (Homo sapiens).
Sequence (P11362 whole entry): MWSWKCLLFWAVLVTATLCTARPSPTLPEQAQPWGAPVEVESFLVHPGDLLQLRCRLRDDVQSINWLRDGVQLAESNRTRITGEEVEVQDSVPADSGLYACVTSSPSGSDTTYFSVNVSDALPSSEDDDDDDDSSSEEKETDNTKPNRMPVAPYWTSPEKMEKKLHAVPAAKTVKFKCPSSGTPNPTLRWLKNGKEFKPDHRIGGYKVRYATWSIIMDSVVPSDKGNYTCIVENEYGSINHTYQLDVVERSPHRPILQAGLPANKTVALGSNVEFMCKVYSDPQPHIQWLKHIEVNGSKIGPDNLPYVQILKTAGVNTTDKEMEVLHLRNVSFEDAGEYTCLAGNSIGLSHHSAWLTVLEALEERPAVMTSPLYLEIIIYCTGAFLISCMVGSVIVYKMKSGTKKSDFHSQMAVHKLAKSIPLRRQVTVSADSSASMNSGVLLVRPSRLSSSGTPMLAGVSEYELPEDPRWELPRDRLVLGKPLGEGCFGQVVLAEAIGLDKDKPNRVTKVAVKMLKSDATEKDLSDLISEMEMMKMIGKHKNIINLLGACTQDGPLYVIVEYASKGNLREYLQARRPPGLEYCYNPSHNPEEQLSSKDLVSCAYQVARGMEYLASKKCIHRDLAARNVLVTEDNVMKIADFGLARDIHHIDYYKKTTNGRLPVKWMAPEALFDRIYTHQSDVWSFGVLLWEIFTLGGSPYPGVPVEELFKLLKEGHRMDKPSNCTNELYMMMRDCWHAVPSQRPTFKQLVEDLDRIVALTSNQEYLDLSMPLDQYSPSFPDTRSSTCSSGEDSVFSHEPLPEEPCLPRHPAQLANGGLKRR
Reply: 7.37

Ask: Look up pIC50 with Fibroblast growth factor receptor 1 (Homo sapiens) for this molecule: `CCN(CC)CCCCNc1ncc2cc(-c3c(Cl)cccc3Cl)c(NC(=S)NCCCN3CCOCC3)nc2n1`
Reply: 6.89

Ask: For the record `CN1CCN(CCCNc2ncc3cc(-c4c(Cl)cccc4Cl)c(NC(=O)NC45C[C@H]6C[C@@H](C4)C[C@@H](C5)C6)nc3n2)CC1` , what value of pIC50 is listed for Fibroblast growth factor receptor 1 (Homo sapiens)?
Reply: 6.92

Ask: I'm curious: which pIC50 was measured for `CN1CCN(CCCNc2ncc3cc(-c4c(Cl)cccc4Cl)c(NC(=O)Nc4ccc(Cl)cc4)nc3n2)CC1` tested on Fibroblast growth factor receptor 1 (Homo sapiens)?
Reply: 6.92

Ask: Give recorded pIC50 with Fibroblast growth factor receptor 1 (Homo sapiens) for the following molecule: `CN1CCN(CCCNc2ncc3cc(-c4c(Cl)cccc4Cl)c(NC(=S)Nc4ccccc4)nc3n2)CC1`
Reply: 6.49

Ask: GET /values?readout=pIC50&system=Fibroblast growth factor receptor 1 (Homo sapiens)&item= `CN1CCN(CCCNc2ncc3cc(-c4c(Cl)cccc4Cl)c(NC(=O)Nc4ccc(Br)cc4)nc3n2)CC1`
Reply: 6.96

Ask: What reported pIC50 corresponds to `CC/N=C(\N)Nc1nc2nc(NCCCN(CC)CC)ncc2cc1-c1c(Cl)cccc1Cl` on Fibroblast growth factor receptor 1 (Homo sapiens)?
Reply: 5.57

Ask: Checklist item: pIC50 tested on Fibroblast growth factor receptor 1 (Homo sapiens), entry `CCN(CC)CCCNc1ncc2cc(-c3c(Br)cccc3Br)c(N)nc2n1` , value?
Reply: 5.08

Ask: Reported pIC50 for Fibroblast growth factor receptor 1 (Homo sapiens), given `CCCC(=O)Nc1nc2nc(NCCCN3CCN(C)CC3)ncc2cc1-c1c(Cl)cccc1Cl` ?
Reply: 5.43

Ask: # get_value(readout= pIC50, system= Fibroblast growth factor receptor 1 (Homo sapiens)) for `CN(C)CCNC(=O)Nc1nc2nc(NCCCN3CCN(C)CC3)ncc2cc1-c1c(Cl)cccc1Cl`
Reply: 7.12

Ask: Record lookup: for Fibroblast growth factor receptor 1 (Homo sapiens), what pIC50 belongs to `CCCCCCCCNC(=O)Nc1nc2nc(NCCCN3CCN(C)CC3)ncc2cc1-c1c(Cl)cccc1Cl` ?
Reply: 6.38

Ask: Tell me reported pIC50 for `CCN(CC)C(=O)Nc1nc2nc(NCCCN3CCN(C)CC3)ncc2cc1-c1c(Cl)cccc1Cl` , tested with Fibroblast growth factor receptor 1 (Homo sapiens).
Reply: 5.26

Ask: Form field: pIC50 recorded for `CN1CCN(CCCNc2ncc3cc(-c4c(Cl)cccc4Cl)c(NC(=O)Cc4ccccc4)nc3n2)CC1` with Fibroblast growth factor receptor 1 (Homo sapiens) (enter value)
Reply: 5.17

Ask: Which measured pIC50 belongs to `Cc1ccc(NC(=O)Nc2nc3nc(NCCCN4CCN(C)CC4)ncc3cc2-c2c(Cl)cccc2Cl)cc1` , tested on Fibroblast growth factor receptor 1 (Homo sapiens)?
Reply: 6.96

Ask: Please state recorded pIC50 (tested on Fibroblast growth factor receptor 1 (Homo sapiens)) of `C=CCNC(=O)Nc1nc2nc(NCCCN3CCN(C)CC3)ncc2cc1-c1c(Cl)cccc1Cl`
Reply: 7.46

Ask: Give Fibroblast growth factor receptor 1 (Homo sapiens) pIC50 for `CN1CCN(CCCNc2ncc3cc(-c4c(Cl)cccc4Cl)c(NS(=O)(=O)c4ccccc4)nc3n2)CC1`
Reply: 7.17

====

assay: Inhibition of MEK1/ERK (MAP Kinase kinase) in cascade assay
MEASUREMENT_LABEL: IC50 (µM)
Report the value in µM with no unit label.

Ask: Query (molecule): `CCN(CC)CCCCNc1ncc2cc(-c3c(Cl)cccc3Cl)c(NC(=O)Nc3ccccc3)nc2n1` ; field requested: IC50
Reply: 5

Ask: Quick one: IC50 for `CCN(CC)CCCCNc1ncc2cc(-c3c(Cl)cccc3Cl)c(NC(=O)NC(C)(C)C)nc2n1` ?
Reply: 2.8

Ask: Consider the molecule shown here: `CN1CCN(CCCNc2ncc3cc(-c4c(Cl)cccc4Cl)c(NC(=O)NC(C)(C)C)nc3n2)CC1` What is its recorded IC50?
Reply: 7

====

molecular target: Platelet-derived growth factor receptor beta (Mus musculus); assay: Ability to prevent phosphorylation of isolated mouse PDGF receptor beta
Sequence (P05622 whole entry): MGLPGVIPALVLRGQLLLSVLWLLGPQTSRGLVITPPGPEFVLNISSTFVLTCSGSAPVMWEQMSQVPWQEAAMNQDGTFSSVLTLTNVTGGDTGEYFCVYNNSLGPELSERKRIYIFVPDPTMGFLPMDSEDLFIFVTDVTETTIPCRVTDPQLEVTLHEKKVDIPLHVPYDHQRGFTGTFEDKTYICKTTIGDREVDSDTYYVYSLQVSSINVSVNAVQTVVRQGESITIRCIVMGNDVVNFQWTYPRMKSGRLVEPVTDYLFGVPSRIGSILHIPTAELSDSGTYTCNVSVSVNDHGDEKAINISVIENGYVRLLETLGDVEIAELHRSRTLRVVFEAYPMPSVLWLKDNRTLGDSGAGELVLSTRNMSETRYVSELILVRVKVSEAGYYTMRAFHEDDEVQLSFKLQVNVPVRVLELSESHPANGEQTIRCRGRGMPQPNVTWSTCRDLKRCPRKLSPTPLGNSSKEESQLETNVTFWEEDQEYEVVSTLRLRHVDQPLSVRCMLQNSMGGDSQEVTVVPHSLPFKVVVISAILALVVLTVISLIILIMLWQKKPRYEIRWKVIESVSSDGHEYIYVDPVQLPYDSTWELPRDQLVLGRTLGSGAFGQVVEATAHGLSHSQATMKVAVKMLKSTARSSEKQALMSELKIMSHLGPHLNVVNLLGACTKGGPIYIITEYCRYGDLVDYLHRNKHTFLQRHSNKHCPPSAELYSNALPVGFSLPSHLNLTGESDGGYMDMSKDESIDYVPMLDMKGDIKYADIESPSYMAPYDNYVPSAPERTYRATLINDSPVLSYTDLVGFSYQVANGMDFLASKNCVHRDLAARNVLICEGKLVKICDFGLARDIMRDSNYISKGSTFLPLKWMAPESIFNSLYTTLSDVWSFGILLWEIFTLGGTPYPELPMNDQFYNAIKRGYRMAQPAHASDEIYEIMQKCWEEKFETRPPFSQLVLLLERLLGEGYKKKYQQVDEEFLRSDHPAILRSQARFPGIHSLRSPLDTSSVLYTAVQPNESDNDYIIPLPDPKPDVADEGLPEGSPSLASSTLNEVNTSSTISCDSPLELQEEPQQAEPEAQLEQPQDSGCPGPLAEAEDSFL
MEASUREMENT_LABEL: pIC50
pIC50 (log units): -log10 of the concentration in mol/L.

Ask: Look at this compound and give its reported pIC50. `CN1CCN(CCCNc2ncc3cc(-c4c(Cl)cccc4Cl)c(NC(=O)NCCNC(=O)OC(C)(C)C)nc3n2)CC1`
Reply: 5.38

Ask: Need pIC50 of `CN1CCN(CCCNc2ncc3cc(-c4c(Cl)cccc4Cl)c(NS(=O)(=O)c4ccccc4)nc3n2)CC1` , thanks.
Reply: 5.16

Ask: I have this compound here, `Nc1ncc2cc(-c3c(Cl)cccc3Cl)c(N)nc2n1` , and I need its recorded pIC50.
Reply: 4.80

Ask: Field request: pIC50 | item: `CN(C)CCCN(C)c1ncc2cc(-c3c(Cl)cccc3Cl)c(NC(=O)NC(C)(C)C)nc2n1`
Reply: 4.80

Ask: Query (compound): `CN1CCN(CCCNc2ncc3cc(-c4c(Cl)cccc4Cl)c(N)nc3n2)CC1` ; field requested: pIC50
Reply: 5.02

Ask: Item under review: CC1CCCCN1CCCNc1ncc2cc(-c3c(Cl)cccc3Cl)c(NC(=O)NC(C)(C)C)nc2n1 (centres undefined) . Reported pIC50?
Reply: 6.14

Ask: Item under review: `CCN(CC)CCCNc1ncc2cc(-c3c(Br)cccc3Br)c(NC(=O)NC(C)(C)C)nc2n1` . Reported pIC50?
Reply: 5.96

====

target: Proto-oncogene tyrosine-protein kinase Src (Gallus gallus)
Hi! Just check whether IC50 is below 90 nM. Below gives yes (1), equal or above gives no (0).

Ask: is_below(IC50, 90 nM) for `CN1CCN(CCCNc2ncc3cc(-c4c(Cl)cccc4Cl)c(/N=C(/S)NC(C)(C)C)nc3n2)CC1` ?
Reply: no (0)

Ask: Answer whether the compound `CN(C)CC(C)(C)CNc1ncc2cc(-c3c(Cl)cccc3Cl)c(NC(=O)NC(C)(C)C)nc2n1` has IC50 strictly less than 90 nM
Reply: no (0)

Ask: Is IC50 strictly under 90 nM for the entry `CCN(CC)CCCNc1ncc2cc(-c3c(Cl)cccc3Cl)c(NC(=O)NC(C)C)nc2n1` ?
Reply: yes (1)

Ask: Does the reported IC50 of `CN1CCN(CCCNc2ncc3cc(-c4c(Cl)cccc4Cl)c(NC(=O)Nc4ccccc4)nc3n2)CC1` stay below 90 nM?
Reply: yes (1)

Ask: Is the reported IC50 for `CCNC(=O)Nc1nc2nc(NCCCN(CC)CC)ncc2cc1-c1c(Cl)cccc1Cl` strictly below 90 nM?
Reply: no (0)

Ask: Dear reviewer, please state whether `CCN(CC)CCCCNc1ncc2cc(-c3c(Cl)cccc3Cl)c(NC(=O)NC3CCCCC3)nc2n1` has IC50 strictly beneath 90 nM.
Reply: yes (1)

Ask: Is the reported IC50 for `CN1CCN(CCCNc2ncc3cc(-c4c(Cl)cccc4Cl)c(N)nc3n2)CC1` strictly below 90 nM?
Reply: no (0)

Ask: Regarding `CN1CCN(CCCNc2ncc3cc(-c4c(Cl)cccc4Cl)c(N=C(N)Nc4ccccc4)nc3n2)CC1` , kindly confirm whether its IC50 is beneath 90 nM.
Reply: no (0)

Ask: Please indicate whether the reported IC50 of `C=CCNC(=O)Nc1nc2nc(NCCCN3CCN(C)CC3)ncc2cc1-c1c(Cl)cccc1Cl` is strictly below 90 nM.
Reply: yes (1)

The values you see were collected from ChEMBL document CHEMBL1134497.
